- Test system: MOLM14 cells
- test: Proliferation assay (spheroid growth, 8 days), MOLM14;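 note: spheroid size read as confluence by live-cell imaging, compounds added at a range of concentrations with 0.3% DMSO, DMSO-treated wells = 0%, highest reference dose = low control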
- Format: cell-based, human
- measurementParameters: MOLM14, 8 days; read-out: spheroid assay_OneTime MOLM14 IC50
measuredQuantity: IC50 (nM)

# molecule, unitsOfMeasure, IC50
measured = [
    ("CCN(C(=O)c1cc(F)ccc1Oc1nncnc1N1CCC2(C1)CN(C(C(C)C)C(C)CCN(C)CCOC)C2)C(C)C (single isomer, unassigned) [Compound 266]", "nM", 29),
]

(A) CCN(C(=O)c1cc(F)ccc1Oc1nncnc1N1CCC2(C1)CN([C@H](CCCO)C(C)C)C2)C(C)C (single isomer, unassigned) [Compound 47]
(B) CC(C)[C@H](CCCN(C)C)N1CC2(CCN(c3ccnnc3Oc3ccc(F)cc3C(=O)N(C(C)C)C(C)C)C2)C1 (single isomer, unassigned) [Compound 76]
(C) CCN(C(=O)c1cc(F)ccc1Oc1nncnc1N1CCC2(C1)CN([C@H](CCCN(C)CCO)C(C)C)C2)C(C)C [Compound 286]
Order the records, beginning with the lowest IC50 and ending with the highest. Give me the labels in the order the question wants. C, A, B

---

- targetUnderTest: hERG potassium channel (Homo sapiens (Human), UniProt Q12809)
- Sequence (Q12809 whole entry): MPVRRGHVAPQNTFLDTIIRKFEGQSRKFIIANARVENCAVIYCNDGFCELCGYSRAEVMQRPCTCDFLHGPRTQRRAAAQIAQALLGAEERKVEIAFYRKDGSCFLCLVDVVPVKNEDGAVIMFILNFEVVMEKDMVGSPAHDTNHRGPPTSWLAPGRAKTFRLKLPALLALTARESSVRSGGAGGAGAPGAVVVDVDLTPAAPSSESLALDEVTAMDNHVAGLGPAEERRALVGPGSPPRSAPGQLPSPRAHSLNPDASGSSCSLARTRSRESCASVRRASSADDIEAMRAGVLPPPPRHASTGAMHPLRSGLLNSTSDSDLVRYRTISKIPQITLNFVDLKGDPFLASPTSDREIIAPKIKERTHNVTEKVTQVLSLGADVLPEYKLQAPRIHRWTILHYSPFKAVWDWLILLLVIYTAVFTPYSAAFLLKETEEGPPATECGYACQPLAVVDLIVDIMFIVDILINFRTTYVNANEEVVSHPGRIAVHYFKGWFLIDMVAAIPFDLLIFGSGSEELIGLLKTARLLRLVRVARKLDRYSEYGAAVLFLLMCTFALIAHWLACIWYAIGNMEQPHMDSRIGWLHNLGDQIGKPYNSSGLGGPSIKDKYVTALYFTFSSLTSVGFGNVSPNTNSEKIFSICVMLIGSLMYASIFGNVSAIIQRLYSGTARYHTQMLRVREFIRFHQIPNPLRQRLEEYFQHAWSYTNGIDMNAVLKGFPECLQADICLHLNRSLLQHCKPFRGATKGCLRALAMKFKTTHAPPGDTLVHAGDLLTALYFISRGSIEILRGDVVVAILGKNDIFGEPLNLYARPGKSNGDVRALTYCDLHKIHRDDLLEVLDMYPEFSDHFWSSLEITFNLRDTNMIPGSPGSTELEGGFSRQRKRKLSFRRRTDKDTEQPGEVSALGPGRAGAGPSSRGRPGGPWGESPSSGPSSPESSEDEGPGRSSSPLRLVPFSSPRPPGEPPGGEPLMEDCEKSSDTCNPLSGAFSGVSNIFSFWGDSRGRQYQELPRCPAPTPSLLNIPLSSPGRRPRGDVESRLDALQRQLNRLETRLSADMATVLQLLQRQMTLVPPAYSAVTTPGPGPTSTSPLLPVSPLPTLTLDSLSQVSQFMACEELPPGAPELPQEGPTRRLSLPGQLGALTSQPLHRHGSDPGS
- test: Effect on membrane potassium current IKr in hERG transfected CHO cells, Protocol 1 (QPatch)
- Assay type: cell-based
Catalogue of molecules with associated IC50

// query IC50 value for entry CNC(=O)CC[C@@H](C(C)C)N1CC2(CCN(c3ncnnc3Oc3ccc(F)cc3-c3cncnc3C3CC3)C2)C1 (single isomer, unassigned) [Compound 45] 12.6 µM

Consider next the molecule CCN(C(=O)c1cc(F)ccc1Oc1nncnc1N1CCC2(C1)CN([C@H](CCCN(C)C)C(C)C)C2)C(C)C [Compound 4] in the same way. > 30.2 µM

Consider next the molecule CCN(CCC[C@H](C(C)C)N1CC2(CCN(c3ncnnc3Oc3ccc(F)cc3C(=O)N(CC)C(C)C)C2)C1)CCOC [Compound 71] in the same way. > 30.2 µM

Consider next the molecule CCN(C(=O)c1cc(F)ccc1Oc1nncnc1N1CCC2(C1)CN([C@H](CCC(C)(C)N(C)C)C(C)C)C2)C(C)C (single isomer, unassigned) [Compound 32] in the same way. > 30.2 µM

Consider next the molecule CCN(C(=O)c1cc(F)ccc1Oc1nncnc1N1CCC2(C1)CN(C(CCCO)C(C)C)C2)C(C)C (stereo not shown) [Compound 49] in the same way. > 30.2 µM

Consider next the molecule CCN(C(=O)c1cc(F)ccc1Oc1nncnc1N1CCC2(C1)CN([C@H](CCCNCC(F)(F)F)C(C)C)C2)C(C)C [Compound 17] in the same way. 4.1 µM

Consider next the molecule CCN(C(=O)c1cc(F)ccc1Oc1nncnc1N1CCC2(C1)CN([C@H](CCCNCCC#N)C(C)C)C2)C(C)C [Compound 12] in the same way. > 30.2 µM

---

- Tested on: KO-52 cells
- test: Proliferation assay (spheroid growth, 8 days), KO-52 control cell line
- Type: cell-based, human
- measurementParameters: Homo sapiens, […], read-out: spheroid assay_OneTime KO-52 IC50
pIC50: −log10 of the molar value. Where a name gives a salt, the structure may show the parent alone.
measuredQuantity: pIC50

// query pIC50 value for entry CCN(C(=O)c1cc(F)ccc1Oc1nncnc1N1CCC2(C1)CN([C@H](CCCN(C)CCNC(C)=O)C(C)C)C2)C(C)C.O=C(O)/C=C/C(=O)O [Compound 245, fumarate] < 4.82

Consider next the compound CCN(C(=O)c1cc(F)ccc1Oc1nncnc1N1CCC2(C1)CN(C(CCCNCCS(C)(=O)=O)C(C)C)C2)C(C)C (stereo not drawn) in the same way. < 4.82

Consider next the compound CCN(C(=O)c1cc(F)ccc1Oc1nncnc1N1CCC2(C1)CN([C@H](CCCN[C@H](CO)COC)C(C)C)C2)C(C)C in the same way. < 4.82

Consider next the compound CCN(C(=O)c1cc(F)ccc1Oc1nncnc1N1CCC2(C1)CN([C@H](CCC(C)(C)N)C(C)C)C2)C(C)C (single isomer, unassigned) in the same way. < 4.82

Consider next the compound CCN(C(=O)c1cc(F)ccc1Oc1nncnc1N1CCC2(C1)CN(C(CCCN)C(C)C)C2)C(C)C (stereo not drawn) [Compound 3, formate] in the same way. < 4.82

Consider next the compound CCN(C(=O)c1cc(F)ccc1Oc1nncnc1N1CCC2(C1)CN([C@H](CCCNCCC(F)(F)F)C(C)C)C2)C(C)C in the same way. 5.51

Consider next the compound CCN(C(=O)c1cc(F)ccc1Oc1nncnc1N1CCC2(C1)CN([C@H](CCCN(C)CC(C)(C)OC)C(C)C)C2)C(C)C [Compound 137, fumarate] in the same way. 5.14

---

- targetUnderTest: hERG (Homo sapiens (Human))
- Sequence (Q12809 whole entry): as above
- test: Effect on membrane potassium current IKr in hERG-transfected HEK293 cells, Protocol 2 (SyncroPatch 384PE)
- measurementParameters: Protocol 2, hERG-transfected HEK293 cells
Structures can show the parent of a compound that is named as a salt.
Catalogue of compounds with associated IC50

In the examples that follow, each entry is paired with its recorded IC50.
# compound, IC50
measured = [
    ("CCN(C)CCC[C@H](C(C)C)N1CC2(CCN(c3ncnnc3Oc3ccc(F)cc3C(=O)N(CC)C(C)C)C2)C1 (single isomer, unassigned)", "> 30.2 µM"),
    ("CCN(C(=O)c1cc(F)ccc1Oc1nncnc1N1CCC2(C1)CN([C@H](CCCN(C)CCN(C)C(C)=O)C(C)C)C2)C(C)C [Compound 148, fumarate]", "12.3 µM"),
    ("CCN(C(=O)c1cc(F)ccc1Oc1nncnc1N1CCC2(C1)CN([C@H](CCN(C)C)C(C)C)C2)C(C)C (single isomer, unassigned)", "> 30.2 µM"),
]

// query IC50 value for entry CCN(C(=O)c1cc(F)ccc1Oc1nncnc1N1CCC2(C1)CN([C@H](C[C@H](C)CN(C)CCOC)C(C)C)C2)C(C)C (single isomer, unassigned) > 30.2 µM

Consider next the compound CCN(C(=O)c1cc(F)ccc1Oc1nncnc1N1CCC2(C1)CN([C@H](CCNCCOC)C(C)C)C2)C(C)C (single isomer, unassigned) in the same way. > 30.2 µM

Consider next the compound CCN(C(=O)c1cc(F)ccc1Oc1nncnc1N1CCC2(C1)CN([C@H](CCCNCCC(F)F)C(C)C)C2)C(C)C.O=C(O)/C=C/C(=O)O in the same way. > 30.2 µM

---

- targetUnderTest: menin/MLL (terbium chelate-labeled menin, FITC-MBM1 peptide) (Homo sapiens (Human), UniProt O00255)
- Sequence (O00255 other isoform, or with tags, fused parts or gaps): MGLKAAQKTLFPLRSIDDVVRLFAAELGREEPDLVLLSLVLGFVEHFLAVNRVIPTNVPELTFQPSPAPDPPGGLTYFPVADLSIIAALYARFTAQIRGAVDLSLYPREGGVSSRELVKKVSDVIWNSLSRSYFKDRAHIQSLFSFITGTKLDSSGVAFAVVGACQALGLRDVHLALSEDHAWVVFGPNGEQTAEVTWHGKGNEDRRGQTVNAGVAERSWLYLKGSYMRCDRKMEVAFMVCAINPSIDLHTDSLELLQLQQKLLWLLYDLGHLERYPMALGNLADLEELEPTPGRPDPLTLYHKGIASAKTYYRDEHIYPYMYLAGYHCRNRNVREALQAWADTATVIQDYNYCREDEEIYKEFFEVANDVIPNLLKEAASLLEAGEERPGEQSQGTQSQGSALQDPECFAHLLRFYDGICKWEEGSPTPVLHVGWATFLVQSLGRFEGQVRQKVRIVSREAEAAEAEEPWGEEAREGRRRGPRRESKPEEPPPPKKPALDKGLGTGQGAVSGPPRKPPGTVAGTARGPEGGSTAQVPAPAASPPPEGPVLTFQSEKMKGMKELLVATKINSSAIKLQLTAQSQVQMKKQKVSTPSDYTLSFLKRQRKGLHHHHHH
- test: Menin/MLL homogenous time-resolved fluorescence (HTRF) assay;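 note: IC50 from percent inhibition of HTRF signal, normalized between wells without competitor and wells with a saturating competitor that displaces FITC-MBM1 from His-tagged menin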
- Format: binding
- measurementParameters: HTRF-30 min incubation IC50, 30 min incubation
Structures can show the parent of a compound that is named as a salt.
measuredQuantity: IC50 (nM)

(1) CCN(C(=O)c1cc(F)ccc1Oc1nncnc1N1CCC2(C1)CN([C@H](C[C@@H](O)CN(C)C(C)C)C(C)C)C2)C(C)C (single isomer, unassigned)
(2) CCN(C(=O)c1cc(F)ccc1Oc1nnc(NC)nc1N1CCC2(C1)CN([C@H](CCCN(C)CCOC)C(C)C)C2)C(C)C [Compound 395, formate]
Among 1 and 2 , which shows a numerically higher IC50 result? Your answer should be the label of the entry you select. 1
(1: 0.49 nM, 2: 0.2 nM)

(I) CCN(C(=O)c1cc(F)ccc1Oc1nnc(Cl)nc1N1CCC2(C1)CN([C@H](CCCN(C)C)C(C)C)C2)C(C)C [Compound 411, formate]
(II) CCN(C(=O)c1cc(F)ccc1Oc1nncnc1N1CCC2(C1)CN(C(CCCN)C(C)C)C2)C(C)C (stereo not drawn) [Compound 3, formate]
(III) CCN(C(=O)c1cc(F)ccc1Oc1nncnc1N1CCC2(C1)CN([C@H](CCCN(C)[C@@H](CO)COC)C(C)C)C2)C(C)C [Compound 167, fumarate]
Order the records, beginning with the lowest IC50 and ending with the highest. Give me the labels in the order the question wants. II, III, I
(II: 0.1 nM, III: 0.16 nM, I: 0.33 nM)

---

- Tested on: KO-52 cells
- test: Proliferation assay (spheroid growth, 8 days), KO-52 control cell line
- Assay type: cell-based, human
- measurementParameters: read-out: spheroid assay_OneTime KO-52 IC50
Catalogue of molecules with associated IC50

In the examples that follow, each entry is paired with its recorded IC50.
# molecule, valueMeasured
rows = [
    ("CNC(=O)CC[C@H](C(C)C)N1CC2(CCN(c3ncnnc3Oc3ccc(F)cc3-c3cncnc3C3CC3)C2)C1 (single isomer, unassigned)", "> 15 µM"),
    ("CCN(C(=O)c1cc(F)ccc1Oc1nnccc1N1CCC2(C1)CN([C@H](CCCN(C)C)C(C)C)C2)C(C)C (single isomer, unassigned)", "13.7 µM"),
    ("CCN(C(=O)c1cc(F)ccc1Oc1nnccc1N1CCC2(C1)CN([C@@H](CCCN(C)C)C(C)C)C2)C(C)C (single isomer, unassigned)", "> 15 µM"),
    ("CCN(C(=O)c1cc(F)ccc1Oc1nncnc1N1CCC2(C1)CN([C@@H](CCCO)C(C)C)C2)C(C)C (single isomer, unassigned)", "> 15 µM"),
    ("CCN(C(=O)c1cc(F)ccc1Oc1nncnc1N1CCC2(C1)CN([C@H](CCCO)C(C)C)C2)C(C)C (single isomer, unassigned)", "10.8 µM"),
]

Form: Entry = CC(C)[C@@H](CCCN(C)C)N1CC2(CCN(c3ccnnc3Oc3ccc(F)cc3C(=O)N(C(C)C)C(C)C)C2)C1 (single isomer, unassigned) | System = KO-52 cells | IC50 = ____ > 15 µM

All figures here come from patent US12473295B2.
